- TARGET OR TEST SYSTEM: full length MPS1 (Homo sapiens (Human), UniProt P33981)
- Sequence (P33981 whole entry): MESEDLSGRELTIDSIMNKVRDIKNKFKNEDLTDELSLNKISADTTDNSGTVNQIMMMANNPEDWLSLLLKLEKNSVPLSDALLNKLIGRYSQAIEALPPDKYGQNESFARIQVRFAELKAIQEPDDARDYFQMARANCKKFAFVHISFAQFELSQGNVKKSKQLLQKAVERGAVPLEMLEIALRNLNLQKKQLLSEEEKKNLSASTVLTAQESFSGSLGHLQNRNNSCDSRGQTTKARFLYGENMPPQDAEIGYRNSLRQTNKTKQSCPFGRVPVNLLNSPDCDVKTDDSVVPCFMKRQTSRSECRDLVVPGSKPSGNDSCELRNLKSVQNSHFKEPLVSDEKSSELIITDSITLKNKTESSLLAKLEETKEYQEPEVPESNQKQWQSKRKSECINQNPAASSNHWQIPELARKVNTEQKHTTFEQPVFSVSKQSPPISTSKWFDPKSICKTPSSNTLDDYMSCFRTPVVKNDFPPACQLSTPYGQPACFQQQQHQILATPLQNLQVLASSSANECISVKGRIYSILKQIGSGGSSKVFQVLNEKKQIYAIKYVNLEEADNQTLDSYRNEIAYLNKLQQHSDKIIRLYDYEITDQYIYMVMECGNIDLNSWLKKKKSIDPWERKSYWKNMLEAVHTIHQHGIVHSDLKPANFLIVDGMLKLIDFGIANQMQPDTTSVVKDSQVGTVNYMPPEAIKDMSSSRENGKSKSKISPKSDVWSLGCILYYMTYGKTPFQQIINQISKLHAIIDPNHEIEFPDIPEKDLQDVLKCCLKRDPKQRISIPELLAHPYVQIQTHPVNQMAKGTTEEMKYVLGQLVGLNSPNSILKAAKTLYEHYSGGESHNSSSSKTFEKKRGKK
- EXPERIMENTAL DETAILS: Measurement of Inhibition of MPS1 Kinase
- Format: biochemical
PARAMETER: pIC50
// scale note: pIC50 = -log10(conc_M); give the bare number

Provide measured pIC50 value, entry: CCOc1cc(-c2nncn2C)ccc1Nc1ncc2cc(C)nc(N3CC(C)(C)C3)c2n1
8.70

----------
Can you tell me IC50 for the items I'm about to list?
- TARGET OR TEST SYSTEM: full length MPS1 (Homo sapiens (Human), UniProt P33981)
- EXPERIMENTAL DETAILS: Measurement of Inhibition of MPS1 Kinase
- Format: biochemical
- APPLIED CONDITIONS: full length MPS1 12.5 nM or 3 nM, H236 peptide 5 μM, ATP 10 μM, 60 min at room temperature, Caliper EZ reader II; read-out: MPS1 IC50
Enter your answer as a number in nM; do not include the unit.

Provide measured IC50 value, entry: CCOc1cc(-c2nncn2C)ccc1Nc1ncc2cc(C)nc(N[C@H](C)C(C)(C)C)c2n1
5

Provide measured IC50 value, entry: CCOc1cc(-c2nncn2C)ccc1Nc1ncc2cc(C)nc(N3CCC(O)CC3)c2n1
2

Provide measured IC50 value, entry: COc1cc(-c2cnnn2C)ccc1Nc1ncc2cc(C)nc(NCC(C)(C)C)c2n1
0.5

Provide measured IC50 value, entry: COc1cc(-c2nccn2C)ccc1Nc1ncc2cc(C)nc(NCC(C)(C)C)c2n1
4

Provide measured IC50 value, entry: CCOc1cc(-c2nncn2C)ccc1Nc1ncc2cc(C)nc(N3CCCC(OC)C3)c2n1 (racemic)
6

Provide measured IC50 value, entry: CCOc1cc(-c2nncn2C)ccc1Nc1ncc2cc(C)nc(N3CC(CC)(OC)C3)c2n1
3

Provide measured IC50 value, entry: COc1cc(-c2cnc(C)n2C)ccc1Nc1ncc2cc(C)nc(N3CCC(C#N)CC3)c2n1
3

Provide measured IC50 value, entry: CCOc1cc(-c2nncn2C)ccc1Nc1ncc2cc(C)nc(N3CCC(C#N)CC3)c2n1
3

Provide measured IC50 value, entry: CCOc1cc(-c2nncn2C)ccc1Nc1ncc2cc(C)nc(N3CCOC(C)C3)c2n1 (racemic)
3

Provide measured IC50 value, entry: CCOc1cc(-c2nncn2C)ccc1Nc1ncc2cc(C)nc(NC3CCOCC3)c2n1
5

Provide measured IC50 value, entry: CCOc1cc(-c2nncn2C)ccc1Nc1ncc2cc(C)nc(N3CC4(CCC4)C3)c2n1
4

Provide measured IC50 value, entry: COc1cc(-c2ccn(C)n2)ccc1Nc1ncc2cc(C)nc(NCC(C)(C)C)c2n1
36

Provide measured IC50 value, entry: COc1cc(-c2nnc(C)n2C)ccc1Nc1ncc2cc(C)nc(NCC(C)(C)C)c2n1
1

Provide measured IC50 value, entry: CCOc1cc(-c2nncn2C)ccc1Nc1ncc2cc(C)nc(N3CC(N(C)C)C3)c2n1
6

Provide measured IC50 value, entry: CCOc1cc(-c2nncn2C)ccc1Nc1ncc2cc(C)nc(N3CCC(C)(C#N)CC3)c2n1
2

Provide measured IC50 value, entry: CCOc1cc(-c2nncn2C)ccc1Nc1ncc2cc(C)nc(N3CCCC3)c2n1
6

Provide measured IC50 value, entry: CCOc1cc(-c2nncn2C)ccc1Nc1ncc2cc(C)nc(N3CC4(CCOCC4)C3)c2n1
2

Provide measured IC50 value, entry: CCOc1cc(-c2nncn2C)ccc1Nc1ncc2cc(C)nc(NCC3(OC)CCC3)c2n1
4

Provide measured IC50 value, entry: COc1cc(-c2cnc(C)n2C)ccc1Nc1ncc2cc(C)nc(N3CC(C)(C)C3)c2n1
5

Provide measured IC50 value, entry: CCOc1cc(-c2nncn2C)ccc1Nc1ncc2cc(C)nc(N3CC4(CCO4)C3)c2n1
2

Provide measured IC50 value, entry: CCOc1cc(-c2nncn2C)ccc1Nc1ncc2cc(C)nc(N[C@@H](C)C(C)(C)C)c2n1
4

Provide measured IC50 value, entry: CCOc1cc(-c2nnc(C)n2C)ccc1Nc1ncc2cc(C)nc(N3CC4(CCOCC4)C3)c2n1
4

Provide measured IC50 value, entry: CCOc1cc(-c2nncn2C)ccc1Nc1ncc2cc(C)nc(N3CC(C)(C#N)C3)c2n1
3

Provide measured IC50 value, entry: CCOc1cc(-c2nncn2C)ccc1Nc1ncc2cc(C)nc(NCC3(C)CCOC3)c2n1 (stereo not drawn)
2

Provide measured IC50 value, entry: CCOc1cc(-c2nncn2C)ccc1Nc1ncc2cc(C)nc(N3CC(C(F)(F)F)C3)c2n1
5

Provide measured IC50 value, entry: CCOc1cc(-c2nncn2C)ccc1Nc1ncc2cc(C)nc(NCC3COC3)c2n1
3

Provide measured IC50 value, entry: CCOc1cc(-c2nncn2C)ccc1Nc1ncc2cc(C)nc(NCC3(O)CCC3)c2n1
3

Provide measured IC50 value, entry: CCOc1cc(-c2nncn2C)ccc1Nc1ncc2cc(C)nc(N3CCC3(C)C)c2n1
10

Provide measured IC50 value, entry: COc1cc(-c2ccnn2C)ccc1Nc1ncc2cc(C)nc(NCC(C)(C)C)c2n1
18

Provide measured IC50 value, entry: CCOc1cc(-c2nnc(C)n2C)ccc1Nc1ncc2cc(C)nc(N3CC(C)(C)C3)c2n1
20

Provide measured IC50 value, entry: CCOc1cc(-c2nncn2C)ccc1Nc1ncc2cc(C)nc(NCC3(O)CC3)c2n1
8

Provide measured IC50 value, entry: CCOc1cc(-c2nncn2CC)ccc1Nc1ncc2cc(C)nc(NCC(C)(C)C)c2n1
6

Provide measured IC50 value, entry: COc1cc(-c2nnnn2C)ccc1Nc1ncc2cc(C)nc(NCC(C)(C)C)c2n1
5
